details: in THF, 318.35 K
parameter: solubility (mole fraction)
When you answer, write just the number.

Task: Given c1ccc2c(c1)OP1(=NP3(=NP4(=N1)Oc1ccccc1O4)Oc1ccccc1O3)O2 , state its recorded solubility (mole fraction).
Result: 0.00218

###

settings: in 1,2-dichloroethane, 313.25 K
parameter: solubility (mole fraction)

Task: Given c1ccc2c(c1)OP1(=NP3(=NP4(=N1)Oc1ccccc1O4)Oc1ccccc1O3)O2 , state its recorded solubility (mole fraction).
Result: 0.0015

###

conditions: in toluene, 318.25 K
parameter: solubility (mole fraction)

Task: Given c1ccc2c(c1)OP1(=NP3(=NP4(=N1)Oc1ccccc1O4)Oc1ccccc1O3)O2 , state its recorded solubility (mole fraction).
Result: 0.00205

###

conditions: in toluene, 323.15 K
parameter: solubility (mole fraction)

Task: Given c1ccc2c(c1)OP1(=NP3(=NP4(=N1)Oc1ccccc1O4)Oc1ccccc1O3)O2 , state its recorded solubility (mole fraction).
Result: 0.00249

###

details: in chloroform, 318.55 K
parameter: solubility (mole fraction)
When you answer, write just the number.

Task: Given c1ccc2c(c1)OP1(=NP3(=NP4(=N1)Oc1ccccc1O4)Oc1ccccc1O3)O2 , state its recorded solubility (mole fraction).
Result: 0.00519

###

settings: in ethyl acetate, 328.15 K
parameter: solubility (mole fraction)
When you answer, write just the number.

Task: Given c1ccc2c(c1)OP1(=NP3(=NP4(=N1)Oc1ccccc1O4)Oc1ccccc1O3)O2 , state its recorded solubility (mole fraction).
Result: 0.00166

###

conditions: in ethanol, 293.95 K
parameter: solubility (mole fraction)
When you answer, write just the number.

Task: Given c1ccc2c(c1)OP1(=NP3(=NP4(=N1)Oc1ccccc1O4)Oc1ccccc1O3)O2 , state its recorded solubility (mole fraction).
Result: 9.52e-05

###

conditions: in ethyl acetate, 298.15 K
parameter: solubility (mole fraction)

Task: Given c1ccc2c(c1)OP1(=NP3(=NP4(=N1)Oc1ccccc1O4)Oc1ccccc1O3)O2 , state its recorded solubility (mole fraction).
Result: 0.000419
